Below, each entry is listed alongside its reported Emax.
Study target: human F508del-CFTR (Homo sapiens, UniProt P13569, DEL508-508)
Sequence (P13569 with tags, fused parts or gaps DEL508-508): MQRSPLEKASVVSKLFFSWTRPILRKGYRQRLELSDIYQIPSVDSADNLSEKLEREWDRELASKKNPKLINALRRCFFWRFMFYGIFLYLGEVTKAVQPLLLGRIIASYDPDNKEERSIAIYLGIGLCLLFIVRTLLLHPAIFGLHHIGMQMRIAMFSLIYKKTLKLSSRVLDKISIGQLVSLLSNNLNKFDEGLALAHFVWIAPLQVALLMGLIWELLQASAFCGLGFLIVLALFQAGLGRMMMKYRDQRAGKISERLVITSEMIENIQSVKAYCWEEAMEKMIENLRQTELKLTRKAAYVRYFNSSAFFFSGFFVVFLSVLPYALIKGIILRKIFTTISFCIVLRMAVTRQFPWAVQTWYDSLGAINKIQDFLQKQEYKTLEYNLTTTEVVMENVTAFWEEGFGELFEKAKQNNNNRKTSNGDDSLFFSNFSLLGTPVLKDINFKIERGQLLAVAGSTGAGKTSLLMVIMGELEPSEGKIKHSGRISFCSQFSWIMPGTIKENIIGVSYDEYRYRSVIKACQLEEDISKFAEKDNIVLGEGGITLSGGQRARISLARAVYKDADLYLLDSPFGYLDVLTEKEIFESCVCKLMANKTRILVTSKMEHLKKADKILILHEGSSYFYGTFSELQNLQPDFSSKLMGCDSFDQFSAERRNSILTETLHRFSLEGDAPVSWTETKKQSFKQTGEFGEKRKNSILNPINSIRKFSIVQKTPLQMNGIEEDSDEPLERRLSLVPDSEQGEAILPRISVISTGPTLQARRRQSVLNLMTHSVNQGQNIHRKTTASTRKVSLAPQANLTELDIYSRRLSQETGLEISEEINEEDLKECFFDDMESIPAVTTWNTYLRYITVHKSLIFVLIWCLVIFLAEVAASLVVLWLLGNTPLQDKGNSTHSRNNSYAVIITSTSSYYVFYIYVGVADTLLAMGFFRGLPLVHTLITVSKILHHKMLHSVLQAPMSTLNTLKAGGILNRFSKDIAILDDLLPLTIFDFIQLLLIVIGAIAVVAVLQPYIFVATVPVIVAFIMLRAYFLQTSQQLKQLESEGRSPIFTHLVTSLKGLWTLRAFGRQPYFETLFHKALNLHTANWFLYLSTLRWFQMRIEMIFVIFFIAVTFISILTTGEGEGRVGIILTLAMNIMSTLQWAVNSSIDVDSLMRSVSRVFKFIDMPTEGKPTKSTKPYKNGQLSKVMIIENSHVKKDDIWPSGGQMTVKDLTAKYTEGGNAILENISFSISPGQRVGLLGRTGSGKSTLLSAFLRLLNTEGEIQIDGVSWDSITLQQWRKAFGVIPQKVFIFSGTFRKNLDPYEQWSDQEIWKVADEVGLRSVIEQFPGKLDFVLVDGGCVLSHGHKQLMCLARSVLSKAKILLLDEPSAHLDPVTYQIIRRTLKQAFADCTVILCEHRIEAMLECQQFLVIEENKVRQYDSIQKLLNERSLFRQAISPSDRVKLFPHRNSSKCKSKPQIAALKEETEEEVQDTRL
Assay info: F508del-CFTR cell surface expression (corrector activity), DiscoveRx ß-galactosidase complementation chemiluminescence assay in recombinant U2OS cell line;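 further: U2OS cells co-expressing ProLink-tagged F508del-CFTR and a membrane-anchored enzyme acceptor, where more surface CFTR restores β-galactosidase activity measured by chemiluminescence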
Reported conditions: U2OS, in relation to the Emax of the corrector lumacaftor (=100%); U2OS cell line, 16h compound incubation; arithmetic mean values

Answered examples (8):
Compound	Study target	Emax
CC(C)C[C@H]1C(=O)N(C)C2(CC2)C(=O)N[C@H](Cc2ccccc2)COc2cnc3ccccc3c2C(=O)N[C@H](C(=O)NCCc2cc(C3CC3)on2)CC(=O)N1C	human F508del-CFTR (Homo sapiens, UniProt P13569, DEL508-508)	265%
CC(C)C[C@H]1C(=O)N(C)C2(CC2)C(=O)N[C@H](Cc2ccccc2)COc2cnc3ccccc3c2C(=O)N[C@H](C(=O)NCCc2nc(C3CC3)no2)CC(=O)N1C	human F508del-CFTR (Homo sapiens, UniProt P13569, DEL508-508)	354%
CC(C)C[C@H]1C(=O)N2CCCC[C@@H]2C(=O)N[C@H](Cc2ccccc2)COc2cnc3ccccc3c2C(=O)N[C@H](C(=O)NCCc2cc(F)cc(F)c2)CC(=O)N1C	human F508del-CFTR (Homo sapiens, UniProt P13569, DEL508-508)	230%
COc1cccc(CCNC(=O)[C@@H]2CC(=O)N(C)[C@@H](CC(C)C)C(=O)N(CCC3CCCCC3)CC(=O)N[C@H](Cc3ccccc3)COc3ccc4ccccc4c3C(=O)N2)c1 [Example 268]	human F508del-CFTR (Homo sapiens, UniProt P13569, DEL508-508)	273%
CC(C)C[C@H]1C(=O)N2CCCC[C@@H]2C(=O)N[C@H](Cc2ccccc2)COc2cnc3ccccc3c2C(=O)N[C@H](C(=O)NCCc2noc(C3CCC3)n2)CC(=O)N1C	human F508del-CFTR (Homo sapiens, UniProt P13569, DEL508-508)	292%
CC(C)C[C@H]1C(=O)N2CCCC[C@@H]2C(=O)N[C@H](Cc2ccccc2)COc2cnc3ccccc3c2C(=O)N[C@H](C(=O)NCCc2ccc(-c3ncccn3)cc2)CC(=O)N1C	human F508del-CFTR (Homo sapiens, UniProt P13569, DEL508-508)	292%
Cc1nc(CCNC(=O)[C@@H]2CC(=O)N(C)[C@@H](CC(C)C)C(=O)N3CCCC[C@@H]3C(=O)N[C@H](Cc3ccccc3)COc3cnc4ccccc4c3C(=O)N2)no1	human F508del-CFTR (Homo sapiens, UniProt P13569, DEL508-508)	277%
COc1cccc2c1C(=O)N[C@H](C(=O)NCCn1nc(C)cc1C)CC(=O)N(C)[C@@H](CC(C)C)C(=O)N(CCC1CCCCC1)CC(=O)N[C@H](Cc1ccccc1)CO2	human F508del-CFTR (Homo sapiens, UniProt P13569, DEL508-508)	118%

Lookup: Emax lookup needed for `COc1cccc2c1C(=O)N[C@H](C(=O)NCCCOC(F)F)CC(=O)N(C)[C@@H](CC(C)C)C(=O)N(CCC1CCCCC1)CC(=O)N[C@H](Cc1ccccc1)CO2` , thanks.
Found: 108%

Lookup: // Emax lookup, key: `CC(C)C[C@H]1C(=O)N2CCCC[C@@H]2C(=O)N[C@H](Cc2ccccc2)COc2cnc3ccccc3c2C(=O)N[C@H](C(=O)NCCc2c(F)cc(Br)cc2F)CC(=O)N1C`
Found: 254%

Source of measurements: patent US20240208992A1
